system: A549/ATCC NSCLC; assay: NCI-60 one-dose screen, 48 h; settings: 10 µM unless noted
The panel holds about 83,000 compounds, 20% with a hit somewhere; the sample as a whole holds those more often. Calls of active or inactive are those of the source. The calls were made as follows: active = growth percent below 10; inactive = the rest.
Choose the fitting class; nothing outside Y = active, N = inactive is accepted.

Look over these answered cases.
Enquiry: Test call for this compound, please: CCCn1c(=O)[nH]c(N)c([C@H]2c3ccccc3Oc3[nH]c(=O)n(CCC)c(=O)c32)c1=O
Return: N

Enquiry: Query CN(C)C(=S)N=Nc1c(O)[nH]c2ccccc12 next
Return: Y

Enquiry: Query O=C1c2cc3c(cc2-c2c1c1cc(F)c(F)cc1c(=O)n2CCCn1ccnc1)OCO3 next
Return: Y

Enquiry: Query COc1cc(-c2ccc3c(c2)NC(=O)/C3=C\c2ccc[nH]2)ccc1O next
Return: N

Enquiry: Query COC[C@H](C)n1c(C2CCOCC2)nc2cnc3cc(-c4c(C)noc4C)c(OC)cc3c21 next
Return: N

More entries:
Enquiry: Test call for this compound, please: CSc1nc(NCCO)c(C#N)c(-c2cccc([N+](=O)[O-])c2)n1
Return: N

Enquiry: Query CSc1nc(Nc2cccc(NC(=O)/C(C#N)=C/c3c(Cl)cccc3Cl)c2)c(C#N)c(-c2cccc([N+](=O)[O-])c2)n1 next
Return: N

Enquiry: Query CN1CCN(c2nc(NCCCNc3ccnc4cc(Cl)ccc34)c3ccccc3n2)CC1 next
Return: N

Enquiry: Query CC(C)(C)N1CCC1CN (stereo not given) next
Return: N

Enquiry: Query COc1ccc(SC2c3cc(OC)c(OC)cc3Oc3nc(N)c(C#N)c(N)c32)cc1 (stereo not given) next
Return: Y
